Values from patent US9359395B2

test: Oral bioavailability in rats; conditions: rat, in vivo, initial studies
METRIC: bioavailability

> print(dat)
                                   compound  reported.result
1  C[C@]12CC[C@H](O)CC1=CCC1C2CC[C@]2(C)C(n3cnc4ccccc43)=CCC12 (stereo partly shown)             ~10%
